These entries and their values trace back to ChEMBL document CHEMBL5576086.

Target: Secretory phospholipase A2 receptor (Homo sapiens)
Sequence (Q13018 whole entry): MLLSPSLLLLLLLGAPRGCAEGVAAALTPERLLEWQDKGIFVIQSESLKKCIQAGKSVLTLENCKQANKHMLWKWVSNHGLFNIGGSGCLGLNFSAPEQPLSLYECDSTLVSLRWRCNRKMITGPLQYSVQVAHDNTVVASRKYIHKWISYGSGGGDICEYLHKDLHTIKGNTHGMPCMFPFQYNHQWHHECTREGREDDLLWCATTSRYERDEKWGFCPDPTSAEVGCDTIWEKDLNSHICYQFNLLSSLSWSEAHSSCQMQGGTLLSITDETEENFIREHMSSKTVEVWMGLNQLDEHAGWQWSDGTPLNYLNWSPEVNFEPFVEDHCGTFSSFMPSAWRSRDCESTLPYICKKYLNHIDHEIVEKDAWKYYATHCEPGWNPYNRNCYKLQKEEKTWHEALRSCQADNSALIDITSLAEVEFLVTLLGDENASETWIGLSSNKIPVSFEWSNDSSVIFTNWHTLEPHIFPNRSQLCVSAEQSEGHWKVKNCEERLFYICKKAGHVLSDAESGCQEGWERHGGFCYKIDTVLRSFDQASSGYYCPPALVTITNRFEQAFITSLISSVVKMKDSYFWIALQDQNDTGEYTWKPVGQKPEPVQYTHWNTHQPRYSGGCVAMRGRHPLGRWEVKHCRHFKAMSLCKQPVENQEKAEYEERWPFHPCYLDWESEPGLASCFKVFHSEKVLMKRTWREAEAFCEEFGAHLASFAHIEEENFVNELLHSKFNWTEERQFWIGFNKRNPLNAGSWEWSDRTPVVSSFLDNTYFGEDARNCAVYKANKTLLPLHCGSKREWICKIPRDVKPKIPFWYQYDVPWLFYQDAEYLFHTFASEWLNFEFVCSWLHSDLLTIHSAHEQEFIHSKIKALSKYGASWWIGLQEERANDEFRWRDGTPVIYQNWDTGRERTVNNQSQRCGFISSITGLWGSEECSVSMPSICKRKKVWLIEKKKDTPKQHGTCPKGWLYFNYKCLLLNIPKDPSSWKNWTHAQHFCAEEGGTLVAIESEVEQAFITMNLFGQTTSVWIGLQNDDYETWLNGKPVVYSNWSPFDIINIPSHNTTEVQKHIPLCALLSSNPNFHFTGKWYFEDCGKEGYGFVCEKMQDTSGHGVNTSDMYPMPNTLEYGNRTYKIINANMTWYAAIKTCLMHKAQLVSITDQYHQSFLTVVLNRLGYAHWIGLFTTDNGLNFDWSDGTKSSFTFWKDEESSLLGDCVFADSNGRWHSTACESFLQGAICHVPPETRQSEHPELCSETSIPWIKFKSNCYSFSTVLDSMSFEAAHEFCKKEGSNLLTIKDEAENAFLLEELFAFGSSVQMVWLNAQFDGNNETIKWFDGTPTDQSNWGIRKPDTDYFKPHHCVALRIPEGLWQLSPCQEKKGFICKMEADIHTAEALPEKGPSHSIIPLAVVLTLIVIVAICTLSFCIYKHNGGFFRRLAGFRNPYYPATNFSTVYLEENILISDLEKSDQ
Experiment: Binding affinity to human recombinant PLA2 receptor assessed as dissociation constant by SPR analysis
OBSERVABLE: Kd (µM)
# unit: µM | format: bare number

Data request, read-out Kd, for CC(C)C[C@H](c1c(O)c(C=O)c(O)c(C=O)c1O)[C@@]1(C)CC[C@@H]2[C@@H]1[C@H]1[C@@H](CC[C@@]2(C)O)C1(C)C
1.47

---

Species: Homo sapiens
Experiment: Inhibition of Anti-PLA2R IgG interaction with human recombinant PLA2 receptor at 10 uM incubated for 1 hr by ELISA analysis relative to control
Where inhibition equals or exceeds 50%, the correct label is criterion met; where it does not, the label is criterion not met.

CHEMICAL SMILES | CLASS ASSIGNMENT
CC(C)=CCc1cc2c(=O)c3c(O)c(CC=C(C)C)c(O)c(CC=C(C)C)c3oc2c(O)c1O | criterion met

Confirm if inhibition reported for the molecule COc1cc(O)c2c(=O)c3cc(CC=C(C)C)c(O)c(O)c3oc2c1CC=C(C)C is 50% or above.
criterion met

Also, CC(C)=CCC[C@]1(C)C=Cc2c(O)c3c(c(CC=C(C)C)c2O1)O[C@]12C(=C[C@@H]4C[C@H]1C(C)(C)O[C@@]2(C/C=C(/C)C(=O)O)C4=O)C3=O please.
criterion met

Also, CO[C@H]1C[C@H](O[C@H]2[C@H](C)O[C@@H](O[C@@H]3/C(C)=C/C[C@@H]4C[C@@H](C[C@]5(C=C[C@H](C)[C@@H](C6CCCCC6)O5)O4)OC(=O)[C@@H]4C=C(C)[C@@H](O)[C@H]5OC/C(=C\C=C\[C@@H]3C)[C@]54O)C[C@@H]2OC)O[C@@H](C)[C@@H]1O please.
criterion not met

Also, CC1(C)CC[C@]2(C(=O)O)CC[C@]3(COC(=O)/C=C/c4ccc(O)c(O)c4)C(=CC[C@@H]4[C@@]5(C)CC[C@H](O)C(C)(C)[C@@H]5CC[C@]43C)[C@@H]2C1 please.
criterion not met

---

Species: Homo sapiens
Test: Inhibition of Anti-PLA2R IgG interaction with human recombinant PLA2 receptor at 10 uM incubated for 1 hr by ELISA analysis relative to control
OBSERVABLE: inhibition (%)
# unit: % | format: bare number

CHEMICAL SMILES | inhibition [%]
COc1c(O)c2c(=O)cc(OC)c3c4c(OC)cc(O)c5c(=O)c(OC)c6c(c(c1[C@H](C(C)=O)[C@](C)(O)C6)c23)c54 | 74.3
CC(=O)O[C@H]1C[C@@H]2C(COC(=O)CC(C)C)=CO[C@@H](OC(=O)CC(C)C)[C@@H]2[C@@]12CO2 | 26.4

Next compound, inhibition to be filled in.
Data request, read-out inhibition, for CC(C)C[C@@H](c1c(O)c(C=O)c(O)c(C=O)c1O)[C@@H]1CC[C@@](C)(O)[C@@H]2[C@@H]3[C@H](CC[C@]21C)C3(C)C
34.3

---

Documented inhibition across a set of molecules
Species on record: Homo sapiens
Assay: Inhibition of Anti-PLA2R IgG interaction with human recombinant PLA2 receptor at 10 uM incubated for 1 hr by ELISA analysis relative to control
Starred links: 1 amine or outer side, 2 acyl side, 3 side chain; linkers in the order of their positions; H or OH if unused. Positions of bridges follow the written chain, without caps; N, C: chain ends. Non-standard residues stand in square brackets, D forms with d. Residues, ends and D or L forms follow the SMILES beside them. Chains are numbered I, II in the order given. Actinocin(9to1) = Cc1c2oc3c(C)ccc(C(=O)[*:1])c3nc-2c(C(=O)[*:2])c(N)c1=O; NMeV = CN[C@H](C(=O)O)C(C)C; Sar = CNCC(=O)O
# unit: % | format: bare number

Example molecules with recorded inhibition:
MOLECULE | REPORTED
Cc1c2oc3c(C)ccc(C(=O)N[C@@H]4C(=O)N[C@H](C(C)C)C(=O)N5CCC[C@H]5C(=O)N(C)CC(=O)N(C)[C@@H](C(C)C)C(=O)O[C@@H]4C)c3nc-2c(C(=O)N[C@@H]2C(=O)N[C@H](C(C)C)C(=O)N3CCC[C@H]3C(=O)N(C)CC(=O)N(C)[C@@H](C(C)C)C(=O)O[C@@H]2C)c(N)c1=O (I: T[dV]P[Sar][NMeV] / II: T[dV]P[Sar][NMeV]; ester I:1-I:C, II:1-II:C; linker I:N-II:N via Actinocin(9to1)) | 79.3
CC(=O)O[C@H]1C[C@]2(O)C(COC(=O)C(OC(=O)CC(C)C)C(C)C)=CO[C@@H](OC(=O)CC(C)C)[C@@H]2[C@@]12CO2 (stereo partly specified) | 30.2
CC(=O)C[C@]1(O)C(=O)C2=C(OC[C@@H]2C)c2ccc3c(C)cccc3c21 | 28.7
CC(C)C[C@H](c1c(O)c(C=O)c(O)c(C=O)c1O)[C@@]1(C)CC[C@@H]2[C@@H]1[C@H]1[C@@H](CC[C@@]2(C)O)C1(C)C | 41.6
CC(C)C[C@@H](c1c(O)c(C=O)c(O)c(C=O)c1O)[C@@]1(C)CC[C@H]2C1=C[C@H](C(C)(C)O)CC[C@H]2C | 21.2

Next molecule, inhibition to be filled in.
Data request, read-out inhibition, for CCCCCc1cc(O)c(C/C=C(\C)CCC=C(C)C)c(O)c1
32.9
